test system: RAW-Dual (murine macrophage reporter line); assay: IRF reporter (Lucia luciferase) activity fold change vs agonist alone; higher = enhanced IRF activity; conditions: modulator concentration 10 µM; agonist: 3'3'-cGAMP 10 ug/mL
IRF reporter overview
readout: IRF reporter

- compound: "Brc1ccc2ncnc(Nc3ccccc3)c2c1"
  readout: "IRF reporter"
  measured result: 0.357
- compound: "O=C(Nc1nc2ccc(Cl)cc2s1)c1ccc(Br)s1"
  readout: "IRF reporter"
  measured result: 0.975
- compound: "O=[N+]([O-])c1ccc(OCC(O)CN2CCN(c3ccccc3)CC2)cc1 (stereo not given)"
  readout: "IRF reporter"
  measured result: 0.982
- compound: "CCn1c(=O)c(-c2ccn[nH]2)cc2c(C)nc(N)nc21"
  readout: "IRF reporter"
  measured result: 1.01
- compound: "COc1c(Cl)cc(C(=O)Nc2cccc(NC(=O)c3ccco3)c2)cc1Cl"
  readout: "IRF reporter"
  measured result: 0.858
- compound: "Cc1ccc(S(=O)(=O)N=C(Nc2ccc([N+](=O)[O-])cc2)c2ccccc2)cc1"
  readout: "IRF reporter"
  measured result: 0.958
- compound: "COC(=O)[C@]12CCC(C)(C)C[C@H]1[C@H]1C(=O)C=C3[C@@]4(C)C=C(C#N)C(=O)C(C)(C)[C@@H]4CC[C@@]3(C)[C@]1(C)CC2"
  readout: "IRF reporter"
  measured result: 0.0972
- compound: "O=C(Nc1ccccn1)c1ccc(OCC2CCCO2)nc1 (stereo not given)"
  readout: "IRF reporter"
  measured result: 0.936
- compound: "CC#CCn1c(N2CCC[C@@H](N)C2)nc2c1c(=O)n(Cc1nc(C)c3ccccc3n1)c(=O)n2C"
  readout: "IRF reporter"
  measured result: 0.944
- compound: "Cc1ccc(Nc2cc(N3CCCCC3)c(N)c3c2C(=O)c2ccccc2C3=O)cc1"
  readout: "IRF reporter"
  measured result: 1
